Tested on: PPARg:RXRa DBDmut IVT, anti-RXR (DBD mutation: RXRa K156A/R161A, NR concentration 270 nM, RXRa partner concentration 90 nM)
protocol-description: PBM binding z-score (relative to random genomic background probes); higher = stronger binding; sequences stand for … in GC…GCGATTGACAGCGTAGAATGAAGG
readout-type: PBM binding z-score

[[record]]
chain_sequence = "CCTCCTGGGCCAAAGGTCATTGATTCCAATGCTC"
result = 1.03

[[record]]
chain_sequence = "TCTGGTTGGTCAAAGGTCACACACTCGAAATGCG"
result = 3.03

[[record]]
chain_sequence = "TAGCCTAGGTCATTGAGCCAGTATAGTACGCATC"
result = 1.41

[[record]]
chain_sequence = "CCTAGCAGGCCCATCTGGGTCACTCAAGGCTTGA"
result = 0.547

[[record]]
chain_sequence = "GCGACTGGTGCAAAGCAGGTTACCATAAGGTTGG"
result = -0.384


Okay, here is my list. What is PBM binding z-score for each of these?
1. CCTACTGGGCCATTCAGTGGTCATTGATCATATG
2. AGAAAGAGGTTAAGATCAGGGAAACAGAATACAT
3. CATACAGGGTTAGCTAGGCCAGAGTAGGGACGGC
4. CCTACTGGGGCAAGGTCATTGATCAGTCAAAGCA
5. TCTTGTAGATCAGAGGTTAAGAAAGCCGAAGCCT
6. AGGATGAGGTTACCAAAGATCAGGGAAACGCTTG
7. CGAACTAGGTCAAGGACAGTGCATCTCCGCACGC

Completion:
1. 3.99
2. 1.12
3. -0.169
4. 4.91
5. 1.58
6. 0.68
7. 8.15

====

System: PPARg:RXRa (NR concentration 180 nM, RXRa partner concentration 90 nM)
protocol-description: PBM binding z-score (relative to random genomic background probes); higher = stronger binding; sequences stand for … in GC…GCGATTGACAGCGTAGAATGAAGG
Provide the reported PBM binding z-score of each item.
One number for each entry.

The following sequences have reported results that may help.
[[record]]
chain_sequence = "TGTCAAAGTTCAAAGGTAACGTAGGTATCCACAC"
result_number = 8.31

[[record]]
chain_sequence = "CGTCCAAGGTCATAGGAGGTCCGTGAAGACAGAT"
result_number = 4.52

[[record]]
chain_sequence = "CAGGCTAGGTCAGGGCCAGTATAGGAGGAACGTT"
result_number = 1.39

[[record]]
chain_sequence = "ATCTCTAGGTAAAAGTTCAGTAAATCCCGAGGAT"
result_number = 7.76

[[record]]
chain_sequence = "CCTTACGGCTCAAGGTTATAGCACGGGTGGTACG"
result_number = 0.607


Now consider the entry below.
# PBM binding z-score measured on PPARg:RXRa (NR concentration 180 nM, RXRa partner concentration 90 nM) for item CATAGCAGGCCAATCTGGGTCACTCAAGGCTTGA = 2.72

====

Would you kindly list PBM binding z-score for each of these sequences?
System: PPARg DBDmut:RXRa IVT, anti-PPARg (DBD mutation: PPARg1 K132A/R137A, NR concentration 270 nM, RXRa partner concentration 90 nM)
protocol-description: PBM binding z-score (relative to random genomic background probes); higher = stronger binding; sequences stand for … in GC…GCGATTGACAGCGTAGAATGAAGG
One number for each entry.

Would you please look over these solved cases?
[[record]]
chain_sequence = "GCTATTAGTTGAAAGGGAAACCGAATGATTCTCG"
result_number = 0.646

[[record]]
chain_sequence = "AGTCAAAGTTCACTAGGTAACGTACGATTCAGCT"
result_number = 1.36

[[record]]
chain_sequence = "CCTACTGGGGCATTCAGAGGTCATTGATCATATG"
result_number = 0.018

[[record]]
chain_sequence = "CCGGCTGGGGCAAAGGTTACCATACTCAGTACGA"
result_number = -0.945

[[record]]
chain_sequence = "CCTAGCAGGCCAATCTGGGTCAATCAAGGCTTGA"
result_number = -0.527

[[record]]
chain_sequence = "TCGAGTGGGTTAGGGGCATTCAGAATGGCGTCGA"
result_number = -0.337

[[record]]
chain_sequence = "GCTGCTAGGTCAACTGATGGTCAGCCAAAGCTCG"
result_number = 0.564

[[record]]
chain_sequence = "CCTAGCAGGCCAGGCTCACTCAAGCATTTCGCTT"
result_number = -2.2


Hi team, please reply with PBM binding z-score for each item in this list.
1. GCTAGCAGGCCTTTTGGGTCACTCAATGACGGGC
2. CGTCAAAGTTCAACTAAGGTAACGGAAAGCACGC
3. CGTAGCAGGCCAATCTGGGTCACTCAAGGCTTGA
4. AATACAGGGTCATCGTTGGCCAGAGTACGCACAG

Completion:
1. -1.25
2. 0.489
3. 0.0881
4. 1.78

Field: PBM binding z-score. Fill in for each record below.
1. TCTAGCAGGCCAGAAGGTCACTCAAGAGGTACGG
2. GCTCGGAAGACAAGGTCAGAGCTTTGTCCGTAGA
3. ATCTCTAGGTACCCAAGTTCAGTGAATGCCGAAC
4. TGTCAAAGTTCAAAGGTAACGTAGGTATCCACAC
5. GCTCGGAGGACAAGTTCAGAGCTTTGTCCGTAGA

Completion:
1. -0.221
2. -0.999
3. 0.772
4. 1.01
5. -1.36

Dear colleague, could you send me PBM binding z-score for each of the items below? Thanks.
1. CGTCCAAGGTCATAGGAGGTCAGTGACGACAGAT
2. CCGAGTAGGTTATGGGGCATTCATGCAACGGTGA

Completion:
1. 0.237
2. -0.836

====

Test system: RARb homodimer (NR concentration 270 nM)
protocol-description: PBM binding z-score (relative to random genomic background probes); higher = stronger binding; sequences stand for … in GC…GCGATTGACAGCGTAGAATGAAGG
readout-type: PBM binding z-score
Numbers only.

These recorded examples may help you get a feel for the data.
[[record]]
chain_sequence = "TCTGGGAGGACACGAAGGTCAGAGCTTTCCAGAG"
readout_type = "PBM binding z-score"
result_number = 3.49

[[record]]
chain_sequence = "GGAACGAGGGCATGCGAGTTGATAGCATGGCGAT"
readout_type = "PBM binding z-score"
result_number = 0.608

[[record]]
chain_sequence = "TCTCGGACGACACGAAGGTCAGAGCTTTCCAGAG"
readout_type = "PBM binding z-score"
result_number = 3.12

[[record]]
chain_sequence = "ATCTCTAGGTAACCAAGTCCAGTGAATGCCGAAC"
readout_type = "PBM binding z-score"
result_number = 0.289

[[record]]
chain_sequence = "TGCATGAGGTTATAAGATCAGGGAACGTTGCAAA"
readout_type = "PBM binding z-score"
result_number = 0.168


# next sequence below
For reference, reported PBM binding z-score for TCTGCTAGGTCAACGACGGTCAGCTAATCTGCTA stands at 3.74

====

Could you please report measured PBM binding z-score for the items listed next?
Test system: RARb homodimer (NR concentration 270 nM)
protocol-description: PBM binding z-score (relative to random genomic background probes); higher = stronger binding; sequences stand for … in GC…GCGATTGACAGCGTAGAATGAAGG
One number for each entry.

[[record]]
chain_sequence = "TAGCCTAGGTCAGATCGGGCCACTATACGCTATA"
readout_type = "PBM binding z-score"
result_number = 2.48

[[record]]
chain_sequence = "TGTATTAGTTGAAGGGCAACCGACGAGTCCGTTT"
readout_type = "PBM binding z-score"
result_number = 1.63

[[record]]
chain_sequence = "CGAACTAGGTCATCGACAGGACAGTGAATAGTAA"
readout_type = "PBM binding z-score"
result_number = 2.75

[[record]]
chain_sequence = "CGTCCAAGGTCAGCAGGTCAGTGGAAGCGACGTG"
readout_type = "PBM binding z-score"
result_number = 5.03

[[record]]
chain_sequence = "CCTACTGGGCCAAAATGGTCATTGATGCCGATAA"
readout_type = "PBM binding z-score"
result_number = 0.177


Please give PBM binding z-score, item by item, for the list that follows.
1. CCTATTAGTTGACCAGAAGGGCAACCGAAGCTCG
2. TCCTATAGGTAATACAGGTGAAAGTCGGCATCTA
3. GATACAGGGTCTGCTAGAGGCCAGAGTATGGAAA
4. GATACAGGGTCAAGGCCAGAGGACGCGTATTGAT
5. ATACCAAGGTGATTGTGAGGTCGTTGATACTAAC
6. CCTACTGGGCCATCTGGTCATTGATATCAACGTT
7. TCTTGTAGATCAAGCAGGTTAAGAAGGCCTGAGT

Completion:
1: 1.88; 2: 0.461; 3: 0.393; 4: 3.63; 5: 2.03; 6: 0.54; 7: 0.0999
